pIC50: −log10 of the molar value.
So I've got pIC50 readings for EGFR Kinase (Homo sapiens, UniProt P00533), take a look.
Assay endpoint: pIC50

[[record]]
compound = "COc1ccc(C2CC(c3ccc(OC)c(OC)c3)=NN2c2nc(-c3ccc(C)cc3)cs2)cc1 (stereo not drawn)"
tested_target = "EGFR Kinase (Homo sapiens, UniProt P00533)"
assay_endpoint = "pIC50"
measurement = 6.64

[[record]]
compound = "COc1ccc(C2=NN(C(N)=S)C(c3ccc(Cl)cc3)C2)cc1OC (stereo not drawn)"
tested_target = "EGFR Kinase (Homo sapiens, UniProt P00533)"
assay_endpoint = "pIC50"
measurement = 7.17

[[record]]
compound = "COc1ccc(C2CC(c3ccc(OC)c(OC)c3)=NN2c2nc(-c3ccccc3)cs2)cc1 (stereo not drawn)"
tested_target = "EGFR Kinase (Homo sapiens, UniProt P00533)"
assay_endpoint = "pIC50"
measurement = 8.05


FYI, the data here is from paper PMC9607164.
